Molecular target: T1, EsCas13d, nuclease-dead (Eubacterium siraeum, UniProt B0MS50, R295A;H300A;R849A;H854A)
T1 sequence: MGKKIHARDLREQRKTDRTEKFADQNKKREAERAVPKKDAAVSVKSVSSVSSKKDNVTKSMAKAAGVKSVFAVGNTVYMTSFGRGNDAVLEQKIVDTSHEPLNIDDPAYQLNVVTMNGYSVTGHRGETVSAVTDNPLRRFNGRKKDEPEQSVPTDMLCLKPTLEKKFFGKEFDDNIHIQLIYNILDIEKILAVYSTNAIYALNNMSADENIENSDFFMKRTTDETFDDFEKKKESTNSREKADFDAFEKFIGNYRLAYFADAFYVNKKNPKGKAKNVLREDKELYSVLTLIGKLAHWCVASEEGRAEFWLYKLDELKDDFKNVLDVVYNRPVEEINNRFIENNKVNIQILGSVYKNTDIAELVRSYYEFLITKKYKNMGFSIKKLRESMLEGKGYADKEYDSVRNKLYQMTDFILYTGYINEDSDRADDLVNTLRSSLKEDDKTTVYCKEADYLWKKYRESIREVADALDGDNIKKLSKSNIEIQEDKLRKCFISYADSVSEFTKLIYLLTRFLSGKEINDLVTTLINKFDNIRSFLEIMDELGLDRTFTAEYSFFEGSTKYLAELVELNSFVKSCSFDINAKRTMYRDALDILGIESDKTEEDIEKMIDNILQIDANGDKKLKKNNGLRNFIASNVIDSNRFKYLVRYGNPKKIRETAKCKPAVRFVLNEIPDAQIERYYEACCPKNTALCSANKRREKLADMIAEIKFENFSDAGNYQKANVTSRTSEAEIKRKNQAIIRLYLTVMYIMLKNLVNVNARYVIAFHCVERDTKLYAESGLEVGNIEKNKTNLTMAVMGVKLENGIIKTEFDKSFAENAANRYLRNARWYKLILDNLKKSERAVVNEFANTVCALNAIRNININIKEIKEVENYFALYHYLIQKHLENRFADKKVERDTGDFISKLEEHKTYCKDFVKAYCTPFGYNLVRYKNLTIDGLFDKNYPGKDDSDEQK
Assay: crRNA (strand 1, pre-loaded); Mg2+; 40 mM Tris-HCl pH 7.5, 150 mM NaCl, 6 mM MgCl2, 1 mM DTT, 0.1% Tween-20, 0.2 mg/ml BSA; 25 C; 10 min per concentration, then washed
Settings: tags: His6-TwinStrep-SUMO cleaved; N-terminal SNAP kept (SNAP-Surface 488); label: 3' end held by stalled T7 RNA polymerase
Listing: pKd of selected binders
To interpret pKd, take it as minus log10 of a concentration measured in moles per litre.

Reference set, count: 3
target 2 MT 5'PFS GCA 3'PFS UAU (mixed) RNA 1: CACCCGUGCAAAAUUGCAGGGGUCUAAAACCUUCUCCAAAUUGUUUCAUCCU RNA 2: GGGAAUGGAUCCACAUCUACGAAUUCGCAAGGAUGAAACAAUUUGGAGAAGUAUAGAUCGGAAGAGCACACGU :: 7.97
target 2 MT 5'PFS CAG 3'PFS ACC (mixed) RNA 1: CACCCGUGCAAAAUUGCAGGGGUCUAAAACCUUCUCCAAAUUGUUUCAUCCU RNA 2: GGGAAUGGAUCCACAUCUACGAAUUCCAGAGGAUGAAACAAUUUGGAGAAGACCAGAUCGGAAGAGCACACGU :: 8.26
target 1 insC 3' of 11,insU 3' of 1 (mixed) RNA 1: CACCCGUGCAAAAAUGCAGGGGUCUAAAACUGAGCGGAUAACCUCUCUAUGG RNA 2: GGGAAUGGAUCCACAUCUACGAAUUCGUACCAUAGAGAGGUCUAUCCGCUCAUCCGAGAUCGGAAGAGCACACGU :: 7.46

Continue with the binder presented below.
Q: Dear colleague, I am looking for the recorded pKd of the following binder: target 2 MT 5'PFS CUC 3'PFS ACA (mixed) RNA 1: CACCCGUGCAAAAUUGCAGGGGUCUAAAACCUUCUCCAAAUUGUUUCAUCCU RNA 2: GGGAAUGGAUCCACAUCUACGAAUUCCUCAGGAUGAAACAAUUUGGAGAAGACAAGAUCGGAAGAGCACACGU
A: 8.51
